Measured values drawn from patent US4317817A for this set.

Target: 5α-reductase
Assay: Affinity (Ki, Km) for 5α-reductase
Source text: The potency of any enzyme inhibitor is often expressed in terms of its inhibition constant, Ki, which is defined mathematically in terms of established relationships of enzyme-catalyzed reaction rates to inhibitor and substrate concentrations. […] In the case of the substrate, the corresponding value is known as the Km, the relationship to combining power being roughly the same.
Exercise: state measured Ki for each of the compounds provided.
Answer in nM, number only, no unit symbol.

Supply reported Ki belonging to this compound: "C[C@H](CO)[C@H]1CC[C@H]2[C@@H]3CC[C@H]4C(=[N+]=[N-])C(=O)CC[C@]4(C)[C@H]3CC[C@]12C"
35

Tell us which Ki value is on record for CC(CO)[C@H]1CC[C@H]2[C@@H]3CCC4=CC(=O)CC[C@]4(C)[C@H]3CC[C@]12C (some centres unmarked) [reference compound]
220
